Cited source for all entries: ChEMBL document CHEMBL3638462

Biological target: UniProt Q9Y233
Sequence (Q9Y233 whole entry): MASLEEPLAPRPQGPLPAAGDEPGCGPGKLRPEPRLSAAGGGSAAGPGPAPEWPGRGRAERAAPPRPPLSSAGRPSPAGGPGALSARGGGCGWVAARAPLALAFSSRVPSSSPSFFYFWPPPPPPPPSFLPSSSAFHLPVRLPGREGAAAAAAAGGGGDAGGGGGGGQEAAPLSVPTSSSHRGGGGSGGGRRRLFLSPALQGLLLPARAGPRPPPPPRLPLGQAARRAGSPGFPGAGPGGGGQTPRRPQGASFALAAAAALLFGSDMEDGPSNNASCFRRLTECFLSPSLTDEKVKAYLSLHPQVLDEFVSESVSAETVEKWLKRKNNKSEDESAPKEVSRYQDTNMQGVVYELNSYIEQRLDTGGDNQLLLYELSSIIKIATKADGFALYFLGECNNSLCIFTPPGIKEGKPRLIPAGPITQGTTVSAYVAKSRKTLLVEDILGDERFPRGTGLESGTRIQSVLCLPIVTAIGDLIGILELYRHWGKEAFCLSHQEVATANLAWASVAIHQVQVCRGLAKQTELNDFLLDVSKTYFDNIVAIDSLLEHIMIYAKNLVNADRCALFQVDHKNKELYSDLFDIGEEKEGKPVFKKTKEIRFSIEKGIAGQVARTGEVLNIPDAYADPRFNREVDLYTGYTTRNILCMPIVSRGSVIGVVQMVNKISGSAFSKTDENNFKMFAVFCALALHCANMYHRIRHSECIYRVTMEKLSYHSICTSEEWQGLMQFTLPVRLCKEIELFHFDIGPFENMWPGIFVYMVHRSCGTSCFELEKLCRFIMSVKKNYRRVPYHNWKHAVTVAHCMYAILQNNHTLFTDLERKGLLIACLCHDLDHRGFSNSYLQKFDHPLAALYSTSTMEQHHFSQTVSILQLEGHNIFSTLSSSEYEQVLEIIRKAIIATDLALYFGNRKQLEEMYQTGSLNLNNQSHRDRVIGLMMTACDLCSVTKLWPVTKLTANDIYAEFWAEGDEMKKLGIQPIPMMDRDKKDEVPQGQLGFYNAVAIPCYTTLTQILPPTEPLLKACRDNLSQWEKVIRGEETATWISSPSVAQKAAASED
pIC50: −log10 of the molar value.
Label rule, in plain words: pIC50 of 9 and up is Criterion met, under 9 is Criterion not met.

* O[C@H]1CCC[C@H](c2cccnc2Oc2ccc(Nc3nc4ccccc4s3)cc2)C1 | Criterion not met
* O=C(c1ccc(Oc2ncccc2Br)cc1)c1nc2ccc(F)cc2[nH]1 | Criterion not met
* O=C(c1ccc(Oc2ncccc2C2(F)CCOCC2)cc1)c1nc2ccccc2[nH]1 | Criterion met

Continue with the next molecule.
Kindly determine if pIC50 recorded for C[C@]1(O)CCC[C@H](c2cccnc2Oc2ccc(Nc3ccccn3)cc2)C1 is above or exactly 9. Criterion not met
